Hey, just so you know, these numbers are from patent US20220332795A1.

biological target: T1, CD71 apical domain (human, UniProt P02786 189-383, limits assumed); experiment: solution ELISA screen, signal ratio to HSA control
T1 construct: domain: apical domain
T1 sequence (P02786 189-383 limits assumed): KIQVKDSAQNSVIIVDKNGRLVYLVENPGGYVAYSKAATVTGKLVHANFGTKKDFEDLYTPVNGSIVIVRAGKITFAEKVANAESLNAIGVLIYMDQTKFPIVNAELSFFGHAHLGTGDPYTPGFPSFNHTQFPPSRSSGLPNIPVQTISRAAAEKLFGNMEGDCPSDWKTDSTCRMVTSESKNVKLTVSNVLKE
Listed here: items and their measured apical domain:HSA.

binder="SEQ ID NO 244 (designed binder, not shown: small tags and cut ends) MLPAPKNLVVSRVTEDSARLSWTAPDAAFDSFYIAYAEPRPDGEAISLQVPGSERSYDLTGLKPGTEYSVLIHGVKGGLLSSPLGAHFTT" result="329 ratio"

Turning now to a further record.
Query: apical domain:HSA; subject: SEQ ID NO 239 (designed binder, not shown: small tags and cut ends) MLPAPKNLVVSRVTEDSARLSWTAPDAAFDSFYIAYAEPRPDGEAIQLVVPGSERSYDLTGLKPGTEYSVLIHGVKGGLLSSPLYAIFTT
221 ratio
